// values below are reported IC50
System: pERK in GP2d cells (KRAS G12D)
Test: Cell-based pERK HTRF assay
Conditions: GP2d, 1 h, 60 min incubation
quantity: IC50

Nc1nc2c(-c3c(Cl)cc4c(N5CC6CCC(C5)N6)nc(OCC56CCCN5CCC6)nc4c3F)ccc(F)c2s1 [Compound 157]
0.1 to 1 µM
N#Cc1c(N)sc2c(F)ccc(-c3ccc4c(N5CC6CCC(C5)N6)nc(OC[C@@]56CCCN5C[C@H](F)C6)nc4c3F)c12 [Compound 358]
≤ 0.1 µM
CC(C)N1C2CCC1CN(c1nc(OC[C@@]34CCCN3C[C@H](F)C4)nc3c(F)c(-c4ccc(F)c5sc(N)nc45)c(C(F)(F)F)cc13)C2 [Compound 316]
0.1 to 1 µM
Nc1nc2c(-c3c(C(F)(F)F)cc4c(N5CC[C@@H]6NCC[C@@H]65)nc(OCC56CCCN5CCC6)nc4c3F)ccc(F)c2s1 [Compound 333]
> 1 µM
Nc1nc2c(-c3c(C(F)(F)F)cc4c(N5CC[C@@H]6CCNC[C@@H]65)nc(OCC56CCCN5CCC6)nc4c3F)ccc(F)c2s1 [Compound 349]
> 1 µM
CN(c1nc(OCC23CCCN2CCC3)nc2c(F)c(-c3ccc(F)c4sc(N)nc34)c(C(F)(F)F)cc12)[C@H]1CC[C@H](N)CC1 [Compound 304]
> 1 µM
Nc1nc2c(-c3c(Cl)cc4c(N5CC6CC(C5)N6)nc(OCC56CCCN5CCC6)nc4c3F)ccc(F)c2s1 [Compound 184]
> 1 µM
N#CCc1cc2c(NC3CNC3)nc(OCC34CCCN3CCC4)nc2c(F)c1-c1ccc(F)c2sc(N)nc12 [Compound 126]
> 1 µM
Nc1nc2c(-c3c(C(F)(F)F)cc4c(N5CC6CCCC(C5)N6)nc(OC[C@@]56CCCN5C[C@H](F)C6)nc4c3F)ccc(F)c2s1 [Compound 299]
≤ 0.1 µM
Nc1nc2c(-c3c(C(F)(F)F)cc4c(N5CC6CC5CN6)nc(OC[C@@]56CCCN5C[C@H](F)C6)nc4c3F)ccc(F)c2s1 (stereo partly drawn) [Compound 226]
≤ 0.1 µM
CN(c1nc(OCC23CCCN2CCC3)nc2c(F)c(-c3ccc(F)c4sc(N)nc34)c(C(F)(F)F)cc12)[C@@H]1CCN(C(=O)CN)C1 (atropisomer, axis not shown) [Compound 276]
> 1 µM
CN1C[C@H](F)C[C@H]1COc1nc(N2C[C@H]3NCC[C@H]32)c2cc(C(F)(F)F)c(-c3ccc(F)c4sc(N)nc34)c(F)c2n1 [Compound 174]
> 1 µM

---

Target: Avi-KRAS G12D/Q25A (1-169) GppNHp/3×FLAG-PI3KCA (157-299) (Homo sapiens, UniProt P01116, G12D/Q25A)
Construct: Avi-KRAS G12D/Q25A (1-169) GppNHp
Sequence (P01116 1-169 isoform P01116-2 G12D/Q25A limits assumed): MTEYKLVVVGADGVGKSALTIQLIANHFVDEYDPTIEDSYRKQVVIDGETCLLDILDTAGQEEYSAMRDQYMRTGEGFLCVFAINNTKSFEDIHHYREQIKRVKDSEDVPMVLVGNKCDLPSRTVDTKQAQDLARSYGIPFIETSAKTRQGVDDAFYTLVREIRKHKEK
Test: HTRF PI3KCA-KRAS G12D/Q25A-GppNHp disruption assay
Conditions: 1 h incubation
pIC50: −log10 of the molar value.
quantity: pIC50

CC(F)(F)c1cc2c(N3CCNCC3)nc(OCC34CCCN3CCC4)nc2c(F)c1-c1ccc(F)c2sc(N)nc12 [Compound 295]
5.00 to 6.00
CN(c1nc(OC[C@@]23CCCN2C[C@H](F)C3)nc2c(F)c(-c3ccc(F)c4sc(N)nc34)c(C(F)(F)F)cc12)C1C2C[C@H]1CN2 (stereo partly shown) [Compound 288]
5.00 to 6.00
CN1CCC[C@H]1COc1nc(NCCN)c2cc(Cl)c(-c3cccc4oc(N)nc34)c(F)c2n1 [Compound 92]
4.52 to 5.00
C[C@@H]1CN(c2nc(OC[C@]34CCCN3C[C@H](F)C4)nc3c(F)c(-c4ccc(F)c5sc(N)nc45)c(C(F)(F)F)cc23)CCN1 [Compound 210]
4.52 to 5.00
N#Cc1c(N)sc2c(F)ccc(-c3c(OC(F)(F)F)cc4c(N5CC6CCC(C5)N6)nc(OC[C@@]56CCCN5C[C@H](F)C6)nc4c3F)c12 [Compound 320]
6.00 to 7.00
CN1CCC[C@H]1COc1nc(NC2CN(C(=O)CN)C2)c2cc(Cl)c(-c3ccc(F)c4sc(N)nc34)c(F)c2n1 [Compound 97]
4.52 to 5.00
CN(c1nc(OC[C@@]23CCCN2C[C@H](F)C3)nc2cc(-c3ccc(F)c4sc(N)c(C#N)c34)c(C(F)(F)F)cc12)[C@H]1CNC[C@@H]1F [Compound 356]
5.00 to 6.00
CN1CCC[C@H]1COc1nc(NC2CN(C(=O)CN)C2)c2cc(C(F)(F)F)c(-c3ccc(F)c4sc(N)nc34)c(F)c2n1 [Compound 114]
5.00 to 6.00
Nc1nc2c(-c3c(Cl)cc4c(N5CCCNCC5)ncnc4c3F)ccc(F)c2s1 [Compound 242]
4.52 to 5.00
N#Cc1c(N)sc2c(F)ccc(-c3c(C(F)(F)F)cc4c(N5C[C@H]6CC[C@@H](C5)N6)nc(N5CC(N6CC7(CC7)C6)C5)nc4c3F)c12 [Compound 363]
6.00 to 7.00
CN(c1nc(OCC23CCCN2CCC3)nc2c(F)c(-c3ccc(F)c4sc(N)nc34)c(C(F)(F)F)cc12)[C@H]1C[C@@H](N)C1 (atropisomer, axis not shown) [Compound 250]
6.00 to 7.00
CN1CCC[C@H]1COc1nc(N2C[C@H]3NCC[C@H]32)c2cc(Cl)c(-c3ccc(F)c4sc(N)nc34)c(F)c2n1 [Compound 95]
4.52 to 5.00
Nc1nc2c(-c3c(C(F)(F)F)cc4c(N[C@H]5CCC[C@@H](N)C5)nc(OCC56CCCN5CCC6)nc4c3F)ccc(F)c2s1 [Compound 329]
4.52 to 5.00

---

System: pERK in GP2d cells (KRAS G12D)
Assay: Cell-based pERK HTRF assay
Details: GP2d, 1 h, 60 min incubation
The entries below are paired with their reported IC50.
quantity: IC50

CN(c1nc(N2CC(N3CC4(CC4)C3)C2)nc2c(F)c(-c3ccc(F)c4sc(N)c(C#N)c34)c(C(F)(F)F)cc12)[C@@H]1CCNC1
100 to 1000 nM
N#Cc1c(N)sc2c(F)ccc(-c3c(C(F)F)cc4c(N5C[C@H]6CC[C@@H](C5)N6)nc(OC[C@@]56CCCN5C[C@H](F)C6)nc4c3F)c12
≤ 100 nM
NCC(=O)N1CCN(c2nc(OCC34CCCN3CCC4)nc3c(F)c(-c4ccc(F)c5sc(N)nc45)c(C(F)(F)F)cc23)CC1
> 1000 nM
CN(c1nc(OC[C@@]23CCCN2C[C@H](F)C3)nc2cc(-c3ccc(F)c4sc(N)nc34)c(C(F)(F)F)cc12)[C@H]1CNC[C@H]1F
100 to 1000 nM
Nc1nc2c(-c3c(C(F)(F)F)cc4c(N5CC[C@@H]6CNC[C@@H]65)nc(OC[C@@]56CCCN5C[C@H](F)C6)nc4c3F)ccc(F)c2s1
100 to 1000 nM
N#Cc1c(O)cccc1-c1c(C(F)(F)F)cc2c(N3CC4CCC(C3)N4)nc(OCC34CCCN3CCC4)nc2c1F
> 1000 nM
Nc1nc2c(-c3c(C(F)(F)F)cc4c(N5CC6CCC(C5)N6)nc(OC[C@@]56CCCN5C[C@H](F)C6)nc4c3F)ccc(F)c2o1
≤ 100 nM
CO[C@H]1CN2CCC[C@]2(COc2nc(N3CC4CCC(C3)N4)c3cc(C(F)(F)F)c(-c4ccc(F)c5sc(N)nc45)c(F)c3n2)C1
≤ 100 nM
N#Cc1c(N)sc2c(F)ccc(-c3c(C(F)(F)F)cc4c(N5C[C@H]6CC[C@@H](C5)N6)nc(N5CC(N6CC7(CC7)C6)C5)nc4c3F)c12
≤ 100 nM
N#Cc1cc2c(N3CC4CCC(C3)N4)nc(OC[C@@]34CCCN3C[C@H](F)C4)nc2c(Cl)c1-c1ccc(F)c2sc(N)c(C#N)c12
100 to 1000 nM
CN(c1nc(OC[C@@]23CCCN2C[C@H](F)C3)nc2cc(-c3ccc(F)c4sc(N)c(C#N)c34)c(C(F)(F)F)cc12)[C@H]1CNC[C@@H]1F
100 to 1000 nM
CN(c1nc(OCC2(CN3CC[C@@H](F)C3)CC2)nc2c(F)c(-c3ccc(F)c4sc(N)nc34)c(C(F)(F)F)cc12)[C@@H]1CCNC1
100 to 1000 nM
CN(c1nc(OCC2(CN3CCOCC3)CC2)nc2c(F)c(-c3ccc(F)c4sc(N)nc34)c(C(F)(F)F)cc12)[C@@H]1CCNC1
≤ 100 nM

---

Target: Avi-KRAS G12D/Q25A (1-169) GppNHp/3×FLAG-PI3KCA (157-299) (Homo sapiens, UniProt P01116, G12D/Q25A)
Construct: Avi-KRAS G12D/Q25A (1-169) GppNHp
Test: HTRF PI3KCA-KRAS G12D/Q25A-GppNHp disruption assay
Conditions: 1 h incubation
quantity: IC50

Nc1nc2c(-c3c(C(F)(F)F)cc4c(N5CCNCC5)nc(OCC56CCCN5CCC6)nc4c3F)ccc(F)c2s1
1 to 10 µM
CN1CCC[C@H]1COc1nc(NCCN)c2cc(Cl)c(-c3ccc4nc(N)sc4c3)c(F)c2n1
10 to 30 µM
CN(c1nc(OC[C@@]23CCCN2C[C@H](F)C3)nc2c(Cl)c(-c3ccc(F)c4sc(N)nc34)c(C(F)(F)F)cc12)[C@@H]1CCNC1
1 to 10 µM
N#Cc1csc2c(F)ccc(-c3cc4nc(OC[C@@]56CCCN5C[C@H](F)C6)nc(N5CC6CCC(C5)N6)c4cc3C(F)(F)F)c12
10 to 30 µM
Nc1nc2c(-c3c(C(F)(F)F)cc4c(N5CC6CC5CN6)nc(OC[C@@]56CCCN5C[C@H](F)C6)nc4c3F)ccc(F)c2s1 (stereo partly drawn) [Compound 241]
0.1 to 1 µM
CN(C)C1CN(c2nc(N3CCNCC3)c3cc(Cl)c(-c4ccc(F)c5sc(N)nc45)c(F)c3n2)C1
10 to 30 µM
Nc1nc2c(-c3c(C4CCC4)cc4c(N5CCNCC5)ncnc4c3F)ccc(F)c2s1
10 to 30 µM
C[C@@H]1CN(c2nc(OC[C@]34CCCN3C[C@H](F)C4)nc3c(F)c(-c4ccc(F)c5sc(N)nc45)c(C(F)(F)F)cc23)[C@@H](C)CN1
10 to 30 µM
CN1CCC(c2nc(NCCN)c3cc(Cl)c(-c4ccc(F)c5sc(N)nc45)c(F)c3n2)CC1
10 to 30 µM
Nc1nc2c(-c3c(C(F)F)cc4c(N5C[C@H]6CC[C@@H](C5)N6)nc(OC[C@@]56CCCN5C[C@H](F)C6)nc4c3F)ccc(F)c2s1
0.1 to 1 µM
CN(c1nc(OC[C@@H]2C[C@@H](F)CN2C)nc2c(F)c(-c3ccc(F)c4sc(N)nc34)c(C(F)(F)F)cc12)C1CN(C(=O)CN)C1
10 to 30 µM
Nc1nc2c(-c3c(Cl)cc4c(NC5CNC5)nc(O)nc4c3F)ccc(F)c2s1
10 to 30 µM
Nc1nc2c(-c3c(C(F)(F)F)cc4c(NC5CC6CC[C@H]5N6)nc(OCC56CCCN5CCC6)nc4c3F)ccc(F)c2s1 (stereo partly drawn) [Compound 265]
1 to 10 µM
CN(c1nc(OC[C@@]23CCCN2C[C@H](F)C3)nc2c(F)c(-c3ccc(F)c4sc(N)c(C#N)c34)c(F)cc12)[C@H]1CCNC1
0.1 to 1 µM
NCCNc1ncnc2c(F)c(-c3ccc(F)c4sc(N)nc34)c(Cl)cc12
10 to 30 µM
